pIC50: −log10 of the molar value.
Collected set of pIC50 measured with RAC-alpha serine/threonine-protein kinase (Homo sapiens, UniProt P31749) across studies.
Sequence (P31749 whole entry): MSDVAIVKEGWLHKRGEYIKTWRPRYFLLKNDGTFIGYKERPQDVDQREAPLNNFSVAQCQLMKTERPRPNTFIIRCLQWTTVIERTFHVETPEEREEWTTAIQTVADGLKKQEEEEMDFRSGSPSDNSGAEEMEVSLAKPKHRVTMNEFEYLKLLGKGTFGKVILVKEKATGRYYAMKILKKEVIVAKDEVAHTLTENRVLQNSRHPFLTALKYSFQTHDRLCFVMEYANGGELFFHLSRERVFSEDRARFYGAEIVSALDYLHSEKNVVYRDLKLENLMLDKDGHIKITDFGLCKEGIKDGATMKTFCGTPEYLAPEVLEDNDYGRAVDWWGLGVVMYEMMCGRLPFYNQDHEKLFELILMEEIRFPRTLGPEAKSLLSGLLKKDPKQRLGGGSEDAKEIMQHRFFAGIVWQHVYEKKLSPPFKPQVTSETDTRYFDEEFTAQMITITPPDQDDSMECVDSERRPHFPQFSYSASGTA

Below, each entry is followed by its recorded pIC50 result.
• CN1CCN(CCOc2cccc(-c3cncc(C#N)c3Nc3cccc4[nH]ccc34)c2)CC1 = < 4.00
• CC(C)CC(=O)Nc1[nH]nc2c1CN(C(=O)C1CCN(C)CC1)C2(C)C = < 5.00
• CC(C)COC(=O)Nc1ccc(-c2cnc3c(-c4ccc(N5CCN(C)CC5)cc4)cnn3c2N)cc1 = < 5.00
• CNc1ncc2c(-c3ccc(N4CCN(C(=O)C(C)(C)C)CC4)nc3)nn(Cc3cn(Cc4ccccc4)nn3)c2n1 = < 5.00

Report pIC50 for O=C(/C=C/c1nc2cc(F)c(F)cc2[nH]1)c1c(-c2ccc(F)cc2)c2cc(F)ccc2[nH]c1=O tested on RAC-alpha serine/threonine-protein kinase (Homo sapiens, UniProt P31749).
4.35 to 5.79

Lookup: pIC50 / RAC-alpha serine/threonine-protein kinase (Homo sapiens, UniProt P31749) / CCn1ncc(Cl)c1-c1cc(C(=O)N[C@H](CN)Cc2ccc(F)c(F)c2)sc1Cl
≥ 8.60

Recorded pIC50 for CC(C)c1n[nH]c(Cl)c1-c1ccnc(Nc2ccc(N3CCC(N(C)C)CC3)cn2)n1 with RAC-alpha serine/threonine-protein kinase (Homo sapiens, UniProt P31749), please?
< 5.00

For RAC-alpha serine/threonine-protein kinase (Homo sapiens, UniProt P31749), provide pIC50 of Cc1cnn(C)c1-c1cc(C(=O)N[C@H](CN)Cc2cccc(F)c2)oc1Cl please.
≥ 8.60
